test: Inhibitory activity of TMP-susceptible Dihydrofolate reductase against […] ATCC 49619
TEST_READOUT: pIC50
// returns pIC50 (minus log10 of molar concentration), number only

Would you mind telling me what pIC50 value was observed for CC1c2ccc3c4ccccc4n(C)c3c2CCN1Cc1cnc(N)nc1N (stereo unspecified) ? 8.00
